Protocol description: Selectivity ratio of CC50 for human MT4 cells to EC50 for HIV1 harboring reverse transcriptase Y181C mutant infected in human MT4 cells
Format: toxicity, cell-based
Reported conditions: read-out: Ratio CC50/EC50
Examples of molecules with documented selectivity ratio follow.

Some solved cases for reference:
cpd_smiles=Cc1cc(C#N)cc(C)c1Oc1nc(NC2CCN(Cc3ccc(S(C)(=O)=O)cc3)CC2)nc2c1COC2 measure_name="selectivity ratio" assay_result=6320
cpd_smiles=Cc1cc(C#N)cc(C)c1Oc1nc(NC2CCN(Cc3ccc(C(N)=O)cc3)CC2)nc2c1SCC2 measure_name="selectivity ratio" assay_result=17300
cpd_smiles=Cc1cc(C#N)cc(C)c1Oc1nc(NC2CCN(Cc3ccncc3)CC2)nc2c1COC2 measure_name="selectivity ratio" assay_result=7630
cpd_smiles=Cc1cc(C#N)cc(C)c1Oc1nc(NC2CCN(Cc3ccc(S(N)(=O)=O)cc3)CC2)nc2c1SCC2 measure_name="selectivity ratio" assay_result=2070

Ask: Please indicate selectivity ratio recorded for `Cc1cc(C#N)cc(C)c1Oc1nc(NC2CCN(Cc3ccc(S(N)(=O)=O)cc3)CC2)nc2c1COC2`
Result: 5090
